# system name: hPXR (Homo sapiens, UniProt O75469)
# Construct: expressed in transfected cells; provided by Dr. Taosheng Chen, St. Jude
# assay info: Pharmacological inhibition (IC50 shift) assay with varying rifampicin in HepG2-CYP3A4-hPXR cells
# Format: cell-based
# cond: co-treated with 5 μM RIF; triplicate
pIC50: −log10 of the molar value.
In this section, each of the molecules is paired with its reported pIC50.

{"molecule": "COc1cc(-c2cn(C3CCc4c(F)cccc4N(CC(F)(F)F)C3=O)nn2)ccc1-n1cnc(C)c1 (centres unmarked)", "pIC50": 5.80}
{"molecule": "CC(=O)O[C@H]1C[C@@]2(C)[C@@H](C[C@@H](O)[C@H]3[C@@]4(C)CC[C@@H](O)[C@@H](C)[C@@H]4CC[C@@]32C)/C1=C(\\CCC=C(C)C)C(=O)O", "pIC50": 5.46}

###

# system name: hPXR (Homo sapiens, UniProt O75469)
# Construct: expressed in transfected cells; provided by Dr. Taosheng Chen, St. Jude
# assay info: PXR luciferase reporter gene assay (qHTS antagonist mode, rifampicin co-treatment) in HepG2-CYP3A4-hPXR cells
# Assay type: cell-based
# cond: 2 μM rifampicin, used as treatment concentration in HepaRG cells
measured parameter: IC70 values from the original NPACT screen (µM)

{"compound": "CCN(CC)C(=O)C(c1ccccc1)N1CCN(c2ccc(NC(=O)c3ccccc3-c3cccnc3)cc2F)CC1 (centres unmarked) [JNJ-31020028]", "system name": "hPXR (Homo sapiens, UniProt O75469)", "measured value": 10}
{"compound": "CC(C)C[C@@H](C(=O)N[C@@H](Cc1ccc(OCc2ccccc2)cc1)C(=O)NC(C)(C)C)N(C)Cc1ccc(C(C)(C)C)cc1 [PD 173212]", "system name": "hPXR (Homo sapiens, UniProt O75469)", "measured value": 3}
{"compound": "CC1CCN(c2cc(NC(=O)c3ccccc3)ncn2)CC1 [ML 340]", "system name": "hPXR (Homo sapiens, UniProt O75469)", "measured value": 3}
{"compound": "CCCCCOc1cc2c(cc1-c1cc(/C=C/C(=O)O)ccc1O)C(C)(C)CCC2(C)C [UVI 3003]", "system name": "hPXR (Homo sapiens, UniProt O75469)", "measured value": 0.8}
{"compound": "CC[C@@H](C)Nc1cc(C(=O)N[C@H]2C[C@H]3CC[C@@H](C2)N3c2ccc(C(=O)C3CC3)cn2)c(C)cc1C(N)=O [XL-888]", "system name": "hPXR (Homo sapiens, UniProt O75469)", "measured value": 0.5}
{"compound": "CN(C)c1cc2c(cc1Sc1nc3c(N)nccc3n1CCNCC(C)(C)C)OCO2 [CUDC-305]", "system name": "hPXR (Homo sapiens, UniProt O75469)", "measured value": 0.25}
{"compound": "Cc1ccccc1C#Cc1ccc(CCC(=O)O)cc1 [TUG-424]", "system name": "hPXR (Homo sapiens, UniProt O75469)", "measured value": 3}
{"compound": "Cc1cccc2c1CC[C@H](CN1CCC(c3c(Cl)cccc3Cl)CC1)C[C@@H]2O [SB-612111]", "system name": "hPXR (Homo sapiens, UniProt O75469)", "measured value": 8}

###

# system name: hPXR (Homo sapiens, UniProt O75469)
# Construct: expressed in transfected cells; provided by Dr. Taosheng Chen, St. Jude
# Sequence (O75469 1-434): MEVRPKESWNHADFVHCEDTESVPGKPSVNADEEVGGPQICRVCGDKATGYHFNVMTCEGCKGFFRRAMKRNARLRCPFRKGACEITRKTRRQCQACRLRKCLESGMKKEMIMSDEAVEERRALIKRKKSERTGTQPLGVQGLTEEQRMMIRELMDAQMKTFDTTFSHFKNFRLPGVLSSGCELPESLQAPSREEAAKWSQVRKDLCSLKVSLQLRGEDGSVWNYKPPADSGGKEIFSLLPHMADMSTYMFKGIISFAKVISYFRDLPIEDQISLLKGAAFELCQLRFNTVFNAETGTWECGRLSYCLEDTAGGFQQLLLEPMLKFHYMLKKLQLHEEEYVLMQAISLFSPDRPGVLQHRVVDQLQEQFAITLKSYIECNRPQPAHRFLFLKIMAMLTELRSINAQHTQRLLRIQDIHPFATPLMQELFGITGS
# assay info: PXR luciferase reporter gene assay (qHTS antagonist mode, rifampicin co-treatment) in HepG2-CYP3A4-hPXR cells
# Assay type: cell-based
# cond: 2 μM rifampicin, used as treatment concentration in HepaRG cells
IC70 values from the original NPACT screen values, listed per item
measured parameter: IC70 values from the original NPACT screen (µM)

{"compound": "C=C1C(=O)O[C@@H]2[C@H]1CC[C@H](C)[C@]1(CCC(=O)O1)C2(C)O (some centres unmarked) [NCGC00380135-02]", "scale unit": "µM", "measured value": 7}
{"compound": "CC(=O)O[C@H]1C[C@@]2(C)[C@@H](C[C@@H](O)[C@H]3[C@@]4(C)CC[C@@H](O)[C@@H](C)[C@@H]4CC[C@@]32C)/C1=C(\\CCC=C(C)C)C(=O)O [fusidic acid]", "scale unit": "µM", "measured value": 5}
{"compound": "c1ccc2c(Oc3nc(Nc4ccc(N5CCOCC5)cc4)c4ncn(C5CCCCC5)c4n3)cccc2c1 [purmorpharmine]", "scale unit": "µM", "measured value": 10}
{"compound": "COC(=O)C1=C(C)NC(COC(N)=O)=C(C(=O)OC(C)C)C1c1cccc(Cl)c1Cl (centres unmarked) [lemildipine]", "scale unit": "µM", "measured value": 0.6}
{"compound": "CC(C)NCCCn1c(Sc2cc3c(cc2I)OCO3)nc2c(N)ncnc21 [PU-H71]", "scale unit": "µM", "measured value": 0.5}
